Source of measurements: PubChem BioAssay (Tox21)

- assay comment: qHTS assay for small molecule disruptors of the mitochondrial membrane potential (AID 720635)
- assay conditions: HepG2 mitochondrial membrane potential, Mito-MPS dye ratio; series mostly up to 83.2 µM
Inconclusive results are not listed. Calls of active or inactive are those of the source. Calls come from the whole dose curve; as a rule, active = well fitted inhibition curve with a large enough effect in the signal ratio in the repeat runs; inconclusive = weak or mixed curves, or effect the other way; inactive = flat fitted curve, though single readings scatter; the % refers to the signal ratio.
Possible outcomes: label 1 (active), label 0 (inactive)

{"compound": "CC[C@]1(O)CC[C@H]2[C@@H]3CCC4=CCCC[C@@H]4[C@H]3CC[C@@]21C", "answer label": "label 1"}
{"compound": "C[C@H]1[C@H](c2ccc(Cl)cc2)SC(=O)N1C(=O)NC1CCCCC1", "answer label": "label 1"}
{"compound": "O=C(Cl)c1ccccc1F", "answer label": "label 0"}
{"compound": "O=Cc1ccccc1", "answer label": "label 0"}
{"compound": "CC(=O)[O][Sn]([c]1ccccc1)([c]1ccccc1)[c]1ccccc1", "answer label": "label 1"}
{"compound": "c1cc[n+]2c(c1)-c1cccc[n+]1CC2", "answer label": "label 0"}
{"compound": "CO/N=C(/C1=NOCCO1)c1ccccc1Oc1ncnc(Oc2ccccc2Cl)c1F", "answer label": "label 1"}
{"compound": "CN1[C@@H]2CC[C@H]1CC(O)C2 (some centres not stated)", "answer label": "label 0"}
{"compound": "CC(=O)[O][Pb]([c]1ccccc1)([c]1ccccc1)[c]1ccccc1", "answer label": "label 1"}
{"compound": "C=CCOC(=O)c1ccccc1N", "answer label": "label 0"}
{"compound": "Oc1ccc(Cl)c(Cl)c1", "answer label": "label 1"}
{"compound": "c1csc(-c2ccc(-c3cccs3)s2)c1", "answer label": "label 1"}
{"compound": "c1ccc2c(c1)cc1ccc3cccc4ccc2c1c34", "answer label": "label 1"}
{"compound": "Oc1cc(Cl)cc(Cl)c1", "answer label": "label 1"}
{"compound": "COP(=S)(NC(C)C)Oc1ccc(C)cc1[N+](=O)[O-] (configuration not stated)", "answer label": "label 1"}
{"compound": "CO/N=C(\\C(=O)OC)c1ccccc1CO/N=C(\\C)c1cccc(C(F)(F)F)c1", "answer label": "label 1"}
{"compound": "Cc1c([N+](=O)[O-])c(C)c([N+](=O)[O-])c(C(C)(C)C)c1[N+](=O)[O-]", "answer label": "label 1"}

---

- assay comment: qHTS assay for small molecule agonists of the antioxidant response element (ARE) signaling pathway - cell viability counter screen (AID 743203); note: nearly all actives have a fitted effect of over 55% in size
- assay conditions: ARE-bla HepG2 viability, CellTiter-Glo luminescence, 16 h; series mostly up to 73.3 µM
Results filed as inconclusive are left out. Active and inactive are the calls of the source. Calls follow the shape of the full dose curve.
Possible outcomes: active, inactive

{"compound": "CCCCCON=O", "answer label": "inactive"}
{"compound": "O=c1[nH]c(Cl)c(Cl)cc1Cl", "answer label": "inactive"}
{"compound": "Cc1ccc([N+](=O)[O-])[c]2c1[O][Hg]2", "answer label": "active"}
{"compound": "CCN1CCC2(CC1)COc1cc3c(cc12)N(C(=O)c1ccc(-c2ccc(-c4nnc(C)o4)cc2C)cc1)CC3", "answer label": "active"}
{"compound": "CN1[C@@H]2CC[C@H]1CC(O)C2 (stereo partly specified)", "answer label": "inactive"}
{"compound": "[F][Sn]([c]1ccccc1)([c]1ccccc1)[c]1ccccc1", "answer label": "active"}
{"compound": "CC1CCCC1", "answer label": "inactive"}
{"compound": "N#CC(C#N)=NNc1cccc(Cl)c1", "answer label": "active"}
{"compound": "COP(=S)(OC)Oc1nc(Cl)c(Cl)cc1Cl", "answer label": "inactive"}
{"compound": "O.O.O.O.O.O.O.O=S(=O)([O-])[O-].[Co+2]", "answer label": "inactive"}
{"compound": "N#Cc1c2ccccc2cc2ccccc12", "answer label": "inactive"}
{"compound": "Oc1ccc([C@H]2CNCc3c2ccc(O)c3O)cc1O", "answer label": "inactive"}
{"compound": "CC(C)N(C(=O)SC/C(Cl)=C/Cl)C(C)C", "answer label": "inactive"}
{"compound": "CO/N=C(/C1=NOCCO1)c1ccccc1Oc1ncnc(Oc2ccccc2Cl)c1F", "answer label": "inactive"}
{"compound": "CC(=O)[O-].CC(=O)[O-].O.O.[Zn+2]", "answer label": "inactive"}
{"compound": "Fc1ccc(C(OCCN2CCN(CCCc3ccccc3)CC2)c2ccc(F)cc2)cc1", "answer label": "active"}
{"compound": "CCC[CH2][Sn]([CH2]CCC)([CH2]CCC)[O][Sn]([CH2]CCC)([CH2]CCC)[CH2]CCC", "answer label": "active"}
{"compound": "CC#C[C@]1(O)CC[C@H]2[C@@H]3C[C@H](C)C4=CC(=O)CC[C@]4(C)[C@H]3CC[C@@]21C", "answer label": "inactive"}
{"compound": "CCOC(=O)Cc1ccccc1", "answer label": "inactive"}
{"compound": "BrCCCBr", "answer label": "inactive"}
{"compound": "CC[N+]1(CC)CCC(OC(=O)C(O)(c2ccccc2)c2ccccc2)C1 (stereo unspecified)", "answer label": "inactive"}
{"compound": "S=C=Nc1ccccc1", "answer label": "inactive"}
{"compound": "c1cc[n+]2c(c1)-c1cccc[n+]1CC2", "answer label": "inactive"}
{"compound": "O=C(N[C@H]1N=C(c2ccccc2F)c2cccc3c2N(CC3)C1=O)c1cc2ccccc2[nH]1", "answer label": "inactive"}
{"compound": "Cc1c([N+](=O)[O-])cc2c(c1[N+](=O)[O-])C(C)(C)CC2(C)C", "answer label": "inactive"}
{"compound": "Cc1cc(C2CC2)nc(Nc2ccccc2)n1", "answer label": "inactive"}

---

- assay comment: qHTS assay to identify small molecule antagonists of the androgen receptor (AR) signaling pathway using the MDA cell line - cell viability counter screen (AID 743041; note: nearly all actives have a fitted effect of over 45% in size)
- assay conditions: MDA-kb2 viability, CellTiter-Fluor, 16 h, cells co-treated with R1881 androgen agonist; series mostly up to 70.3 µM
Results filed as inconclusive are left out. Activity calls are given as the source filed them. The call rests on the fitted dose curve; in most records, active means well fitted cell-killing curve with a large enough effect in the repeat runs; inconclusive means weak or mixed curves, or effect the other way; inactive means flat fitted curve, though single readings scatter.
Possible outcomes: active, inactive

{"molecule": "CNC(=O)/C=C(\\C)OP(=O)(OC)OC", "answer label": "inactive"}
{"molecule": "O=C1C[C@@H]2OCC=C3CN4CC[C@]56c7ccccc7N1[C@H]5[C@H]2[C@H]3C[C@H]46", "answer label": "inactive"}
{"molecule": "CC(=O)[O][Sn]([c]1ccccc1)([c]1ccccc1)[c]1ccccc1", "answer label": "active"}
{"molecule": "CCNc1nc(NC(C)C(C)C)nc(SC)n1 (stereo unspecified)", "answer label": "inactive"}
{"molecule": "C=C(C)C(=O)[O][Sn]([CH2]CCC)([CH2]CCC)[CH2]CCC", "answer label": "active"}
{"molecule": "CCC1COC(Cn2cncn2)(c2ccc(Cl)cc2Cl)O1 (stereo unspecified)", "answer label": "inactive"}

---

- target or system: Estrogen receptor (Homo sapiens) (UniProt P03372)
- Sequence (P03372 whole entry, looked up): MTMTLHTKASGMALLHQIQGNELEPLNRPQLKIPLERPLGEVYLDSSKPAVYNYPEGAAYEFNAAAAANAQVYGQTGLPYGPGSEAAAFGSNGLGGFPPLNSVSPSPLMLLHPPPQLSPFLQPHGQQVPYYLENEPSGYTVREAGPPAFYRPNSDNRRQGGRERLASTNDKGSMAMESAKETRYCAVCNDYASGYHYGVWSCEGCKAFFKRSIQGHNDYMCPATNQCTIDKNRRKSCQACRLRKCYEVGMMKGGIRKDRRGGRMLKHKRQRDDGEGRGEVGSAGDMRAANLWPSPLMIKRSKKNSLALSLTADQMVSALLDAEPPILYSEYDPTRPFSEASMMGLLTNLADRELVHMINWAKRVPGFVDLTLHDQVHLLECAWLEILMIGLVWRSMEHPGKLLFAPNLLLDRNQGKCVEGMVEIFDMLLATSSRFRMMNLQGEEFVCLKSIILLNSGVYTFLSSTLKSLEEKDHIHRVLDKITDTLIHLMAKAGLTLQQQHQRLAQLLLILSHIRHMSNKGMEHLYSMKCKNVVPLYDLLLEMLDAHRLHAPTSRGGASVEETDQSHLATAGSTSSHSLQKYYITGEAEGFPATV
- assay comment: qHTS assay to identify small molecule agonists of the estrogen receptor alpha (ER-alpha) signaling pathway using the BG1 cell line (AID 743079); note: nearly all actives have a fitted effect of over 20% in size; for activation: % is set by controls: 0 for no effect and ±100 for the full control effect
- assay conditions: BG1Luc4E2 cells, ERE-luciferase agonist, 22 h
Inconclusive results are not listed. The source made the active and inactive calls. The call rests on the fitted dose curve; in most records, active means well fitted activation curve with a large enough effect in the repeat runs; inconclusive means weak or mixed curves, or effect the other way; inactive means no such curve, though single readings can be large or run the other way.
Possible outcomes: label 1 for active, label 0 for inactive

{"compound": "Cc1c([N+](=O)[O-])c(C)c([N+](=O)[O-])c(C(C)(C)C)c1[N+](=O)[O-]", "answer label": "label 0"}
{"compound": "CC1CN1 (stereo unspecified)", "answer label": "label 0"}
{"compound": "CC1(C)C(C=C(Cl)Cl)C1C(=O)OC(C#N)c1ccc(F)c(Oc2ccccc2)c1 (stereo unspecified)", "answer label": "label 0"}
{"compound": "Nc1nc(N)nc(Cl)n1", "answer label": "label 0"}
{"compound": "Cc1ccccc1OP(=O)(Oc1ccccc1C)Oc1ccccc1C", "answer label": "label 1"}
{"compound": "CCC1COC(Cn2cncn2)(c2ccc(Cl)cc2Cl)O1 (stereo unspecified)", "answer label": "label 0"}

---

- assay comment: qHTS assay to identify small molecule antagonists of the estrogen receptor alpha (ER-alpha) signaling pathway using the BG1 cell line - cell viability counter screen (AID 743081);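 note: compound given together with 17beta-estradiol as the ER stimulus; nearly all actives have a fitted effect of over 45% in size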
- assay conditions: BG1Luc4E2 viability, CellTiter-Fluor, 22 h; series mostly up to 70.3 µM
Records with an inconclusive call do not appear. Calls of active or inactive are those of the source. The call rests on the fitted dose curve; in most records, active means well fitted cell-killing curve with a large enough effect in the repeat runs; inconclusive means weak or mixed curves, or effect the other way; inactive means flat fitted curve, though single readings scatter.
Possible outcomes: active, inactive

{"molecule": "CN1C(=O)[C@@H](NC(=O)c2cc3ccccc3[nH]2)N=C(c2ccccc2)c2ccccc21", "answer label": "inactive"}
{"molecule": "ClC(Cl)C(Cl)(Cl)Cl", "answer label": "inactive"}
{"molecule": "Oc1ccc(Cl)c(Cl)c1", "answer label": "inactive"}
{"molecule": "[O]=[Cr](=[O])([OH])[O][Cr](=[O])(=[O])[OH]", "answer label": "inactive"}
{"molecule": "Cc1c([N+](=O)[O-])cc2c(c1[N+](=O)[O-])C(C)(C)CC2(C)C", "answer label": "inactive"}
{"molecule": "O=NN(CCO)CCO", "answer label": "inactive"}
{"molecule": "CNC(=O)/C=C(\\C)OP(=O)(OC)OC", "answer label": "inactive"}
{"molecule": "CC(C)(C)c1ccc(OP(=O)(Oc2ccccc2)Oc2ccccc2)cc1", "answer label": "inactive"}
{"molecule": "O=C(Nc1ccc(F)cc1F)c1cccnc1Oc1cccc(C(F)(F)F)c1", "answer label": "inactive"}
{"molecule": "CC(C)c1c(CN(C)C(C)Cc2ccccc2)n(C)n(-c2ccccc2)c1=O (stereo not drawn)", "answer label": "inactive"}
{"molecule": "COP(=S)(OC)Oc1ccc([N+](=O)[O-])c(C)c1", "answer label": "inactive"}
{"molecule": "CC(C)N(C(=O)SC/C(Cl)=C/Cl)C(C)C", "answer label": "inactive"}
{"molecule": "Cc1ccn2nc(S(=O)(=O)Nc3c(F)cccc3F)nc2n1", "answer label": "inactive"}
{"molecule": "O=[N+]([O-])C(Br)Br", "answer label": "inactive"}
{"molecule": "CCOP(=O)(OCC)Oc1nc(Cl)c(Cl)cc1Cl", "answer label": "inactive"}
{"molecule": "CCCCN(CCCC)C(=S)[S-].CCCCN(CCCC)C(=S)[S-].[Ni+2]", "answer label": "inactive"}
{"molecule": "c1ccc(Nc2ccc(Nc3ccccc3)cc2)cc1", "answer label": "inactive"}
{"molecule": "O=C(NC(=O)c1ccccc1Cl)Nc1ccc(OC(F)(F)F)cc1", "answer label": "inactive"}
{"molecule": "COc1ccc2[nH]cc(CCN(C(C)C)C(C)C)c2c1", "answer label": "inactive"}
{"molecule": "ClC1(Cl)C2(Cl)C3(Cl)C4(Cl)C(Cl)(Cl)C5(Cl)C3(Cl)C1(Cl)C5(Cl)C24Cl (stereo not drawn)", "answer label": "inactive"}
{"molecule": "C=CCOC(=O)c1ccccc1N", "answer label": "inactive"}
{"molecule": "CCCCn1cc[n+](C)c1 (tested in a mixture with another compound)", "answer label": "inactive"}
{"molecule": "[O]=[Cr][O][Cr]=[O]", "answer label": "inactive"}
{"molecule": "CC[C@]1(O)CC[C@H]2[C@@H]3CCC4=CCCC[C@@H]4[C@H]3CC[C@@]21C", "answer label": "inactive"}
{"molecule": "CCCCN(CCCC)C(=S)S", "answer label": "inactive"}
{"molecule": "CCN(CC)C(=O)N[C@@H]1C=C2c3cccc4[nH]cc(c34)C[C@@H]2N(C)C1", "answer label": "inactive"}
{"molecule": "[Cl][Hg][c]1ccccc1", "answer label": "active"}
{"molecule": "O=[N+]([O-])c1cccc2cccc([N+](=O)[O-])c12", "answer label": "inactive"}
{"molecule": "COc1cnc(OC)n2nc(NS(=O)(=O)c3c(OCC(F)F)cccc3C(F)(F)F)nc12", "answer label": "inactive"}
{"molecule": "CC(C)N(C(=O)CCl)c1ccccc1", "answer label": "inactive"}
{"molecule": "CC(=O)C(Cl)C(=O)N(C)C (stereo not drawn)", "answer label": "inactive"}
{"molecule": "CSC(=O)c1c(C(F)F)nc(C(F)(F)F)c(C(=O)SC)c1CC(C)C", "answer label": "inactive"}
{"molecule": "S=C=NCCc1ccccc1", "answer label": "inactive"}
{"molecule": "Brc1cccc(-c2ccccc2)c1", "answer label": "inactive"}
{"molecule": "O=S(=O)(O)F", "answer label": "inactive"}
{"molecule": "C=Cc1cccc(CCl)c1", "answer label": "inactive"}
{"molecule": "COP(=S)(NC(C)C)Oc1ccc(C)cc1[N+](=O)[O-] (stereo not drawn)", "answer label": "inactive"}
{"molecule": "CCCCC(CC)COC(=O)c1ccccc1C(=O)OCC(CC)CCCC (stereo not drawn)", "answer label": "inactive"}
{"molecule": "O=C(O)CCCCCCNC1c2ccccc2CCc2ccccc21", "answer label": "inactive"}
{"molecule": "O=[N+]([O-])c1ccccc1-c1ccccc1", "answer label": "inactive"}
{"molecule": "Cc1ccccc1OP(=O)(Oc1ccccc1C)Oc1ccccc1C", "answer label": "inactive"}
{"molecule": "COC(=O)/C=C(\\C)OP(=O)(OC)OC", "answer label": "inactive"}
{"molecule": "CCCCON=O", "answer label": "inactive"}
{"molecule": "O=[N+]([O-])c1ccc(Cl)c(Cl)c1Cl", "answer label": "inactive"}
{"molecule": "CC(=O)[O][Pb]([c]1ccccc1)([c]1ccccc1)[c]1ccccc1", "answer label": "active"}
{"molecule": "CCOC(=O)CCN(SN(C)C(=O)Oc1cccc2c1OC(C)(C)C2)C(C)C", "answer label": "inactive"}
{"molecule": "O=P(Cl)(Cl)Cl", "answer label": "inactive"}
{"molecule": "COCCC#N", "answer label": "inactive"}
{"molecule": "C=C(C)C(=O)[O][Sn]([CH2]CCC)([CH2]CCC)[CH2]CCC", "answer label": "active"}
{"molecule": "CN1[C@@H]2CC[C@H]1CC(O)C2 (stereo partly drawn)", "answer label": "inactive"}
{"molecule": "CC(C)NCC(O)c1ccccc1Cl (stereo not drawn)", "answer label": "inactive"}
{"molecule": "Cc1ccc2cc3c(ccc4ccccc43)c3c2c1CC3", "answer label": "inactive"}
{"molecule": "CCCCc1ccccc1", "answer label": "inactive"}
